Data provenance is PubChem BioAssay AID488969.

# Target Or Test System: Metabotropic glutamate receptor 8 (Rattus norvegicus)
# Assay Info: mGluR8 Gi/Go-coupled signaling modulation – cell-based, rat, thallium flux, HTS, primary screen (AID 488969)
# Details: HEK293 rat mGluR8, GIRK thallium flux, FluoZin2; at 10 µM; stronger effect = higher value; submaximal glutamate (EC20) added with thallium
Whole data set: some 110,000 compounds, median “z-score” near -0.1, cut for the highest 2% near 2. The full list was thinned out, with the highest values kept by preference.
Readout Label: z-score
Form field (numeric): enter value without unit.

// worked examples, z-score included
Lookup result for "C/C(=N/NC(=O)c1cc(Cl)ccc1O)C12CC3CC(CC(C3)C1)C2" ; measured z-score: 3.19

Lookup result for CCC1(c2ccc(Cl)cc2)NC(=S)N(c2ccccc2)N1 (configuration not stated) ; measured z-score: 4.78

Lookup result for "CCOc1ccc(NC(=O)NC23CC4CC(CC(C4)C2)C3)cc1" ; measured z-score: 4.76

More entries:
Lookup result for "N#Cc1cccc(NC(=O)Nc2cccs2)c1" ; measured z-score: 2.55

Lookup result for CCN(CC)S(=O)(=O)c1ccc(NC(=O)C2CCCO2)cc1 (configuration not stated) ; measured z-score: -0.205

Lookup result for "COC(=O)Sc1nc(N2CCOCC2)c2c(c1C#N)CC(C)(C)OC2" ; measured z-score: -2.52

Lookup result for "COc1ccc2cc(S(=O)(=O)NCCCN3CCOCC3)ccc2c1" ; measured z-score: -0.0146

Lookup result for "COc1cccc(NC(=O)Nc2cccs2)c1" ; measured z-score: 1.67

Lookup result for C/C(=N\O)C(C)/[N+]([O-])=C/c1nc(C)c(C)n1O (configuration not stated) ; measured z-score: 1.53

Lookup result for "Nc1nc(SCC(=O)NCCCO)nc2sc3c(c12)CCC3" ; measured z-score: 1.08

Lookup result for "CCC(=O)NC(=S)Nc1ccc(NC(=O)c2ccc(OC)cc2)cc1" ; measured z-score: -0.111

Lookup result for Cc1ccc(C(CCN)c2ccco2)cc1 (configuration not stated) ; measured z-score: 0.345

Lookup result for "C/C(=N\NC(=O)c1cccc(F)c1)c1ccc(Br)s1" ; measured z-score: 7.29

Lookup result for CC1CCC2(CC1)NC(=S)N(c1ccccc1)N2 (configuration not stated) ; measured z-score: 0.323

Lookup result for "CC(C)c1ccc(/C=N/Nc2ccc(C(=O)O)cc2)cc1" ; measured z-score: -0.222

Lookup result for CCC1(c2ccccc2)NC(=S)N(c2cccc(C)c2C)N1 (configuration not stated) ; measured z-score: 1.26

Lookup result for "C/C(=N\NC(=O)CNc1cccc(C)c1)c1ccc(Br)s1" ; measured z-score: 0.0989

Lookup result for "CCCN(CCC)S(=O)(=O)c1ccc(C(=O)Nc2nc(-c3ccccc3)c(C(=O)OCC)s2)cc1" ; measured z-score: -0.243

Lookup result for "CC(C)(C)C(=O)Nc1cc(NC(=O)C(C)(C)C)cc(C(=O)Nc2cc(C(=O)O)cc(C(=O)O)c2)c1" ; measured z-score: 0.00761

Lookup result for NC(=O)C(Cc1ccccc1)NS(=O)(=O)c1ccc(N2CCCC2=O)cc1 (configuration not stated) ; measured z-score: 0.443

###

# Target Or Test System: Metabotropic glutamate receptor 8 (Rattus norvegicus) (UniProt P70579)
# Sequence (P70579 whole entry, looked up): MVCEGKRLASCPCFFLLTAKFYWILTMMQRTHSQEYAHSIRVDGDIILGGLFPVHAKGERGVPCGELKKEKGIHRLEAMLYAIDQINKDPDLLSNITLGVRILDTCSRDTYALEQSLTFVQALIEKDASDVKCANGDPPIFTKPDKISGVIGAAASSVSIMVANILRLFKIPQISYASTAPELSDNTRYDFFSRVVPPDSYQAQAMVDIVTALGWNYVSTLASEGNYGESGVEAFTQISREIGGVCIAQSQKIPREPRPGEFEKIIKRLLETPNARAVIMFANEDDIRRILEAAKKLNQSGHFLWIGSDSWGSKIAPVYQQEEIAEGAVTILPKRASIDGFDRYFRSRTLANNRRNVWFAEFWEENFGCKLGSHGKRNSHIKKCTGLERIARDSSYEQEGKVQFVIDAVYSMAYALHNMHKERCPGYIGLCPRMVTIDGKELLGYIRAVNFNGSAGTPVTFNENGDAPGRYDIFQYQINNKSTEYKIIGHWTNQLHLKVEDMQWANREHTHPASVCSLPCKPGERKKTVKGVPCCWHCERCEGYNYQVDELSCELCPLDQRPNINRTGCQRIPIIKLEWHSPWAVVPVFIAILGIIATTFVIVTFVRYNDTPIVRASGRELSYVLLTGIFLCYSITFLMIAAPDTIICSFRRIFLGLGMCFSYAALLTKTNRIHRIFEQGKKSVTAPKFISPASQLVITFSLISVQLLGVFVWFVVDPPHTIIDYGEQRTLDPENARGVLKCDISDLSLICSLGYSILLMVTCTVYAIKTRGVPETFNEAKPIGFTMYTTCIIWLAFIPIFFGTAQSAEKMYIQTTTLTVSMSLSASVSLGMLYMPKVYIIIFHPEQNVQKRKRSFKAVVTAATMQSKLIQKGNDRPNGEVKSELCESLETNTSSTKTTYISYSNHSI
# Assay Info: mGluR8 Gi/Go-coupled signaling modulation – cell-based, rat, thallium flux, HTS, primary screen (AID 488969)
# Details: HEK293 rat mGluR8, GIRK (G protein-gated inwardly rectifying potassium channel) thallium flux, FluoZin2; at 10 µM; stronger effect = higher value; submaximal glutamate (EC20) added with thallium
The full ranking holds about 110,000 compounds; the median of “z-score” is about -0.1, and the highest 2% start at about 2. For the sample, the highest values were picked, then their nearest neighbours and some compounds at random.
Each record's class is read off its z-score using these ranges: lower bin (below -0.04), middle bin (-0.04 to below 0.3), upper bin (0.3 or more)

Completed entries (count: 6):
Which bin, given its z-score, does O=C(c1ccccc1)N(Cc1ccc(F)cc1)C1CCS(=O)(=O)C1 (stereo unspecified) occupy? lower bin

Which bin, given its z-score, does O=C(c1ccc(Cl)c([N+](=O)[O-])c1)N(Cc1ccccc1)C1CCS(=O)(=O)C1 (stereo unspecified) occupy? upper bin

Which bin, given its z-score, does "Cc1cccc(N=Cc2cc3c(cc2[N+](=O)[O-])OCO3)c1" occupy? lower bin

Which bin, given its z-score, does "CC(C)C(=O)Nc1ccc(-c2csc(-c3ccccc3)n2)cc1" occupy? lower bin

Which bin, given its z-score, does Cc1ccc(S(=O)(=O)N2CCC(C(=O)N3CCC(C(=O)NCC4CCCO4)CC3)CC2)cc1 (stereo unspecified) occupy? middle bin

Which bin, given its z-score, does Cc1ccccc1CSc1nnc(NC(=O)C2COc3ccccc3O2)s1 (stereo unspecified) occupy? middle bin

More entries:
Which bin, given its z-score, does "CS(=O)(=O)N1CCN(C/C=C/c2ccccc2)CC1" occupy? lower bin

Which bin, given its z-score, does Cc1cccc(C(=O)NCC2CCCO2)c1 (stereo unspecified) occupy? upper bin

Which bin, given its z-score, does "CC(=O)N1CCC(=NNc2ccc(S(=O)(=O)N3CCOCC3)cc2[N+](=O)[O-])CC1" occupy? upper bin

Which bin, given its z-score, does "CCOC(=O)CC12CN3CN(C1)CC(CC(=O)OCC)(C3)C2=O" occupy? middle bin
